Numbers sourced from the supplement of paper PMC3334620.

- Target or system: Stb5 (UniProt P38699)
- Sequence: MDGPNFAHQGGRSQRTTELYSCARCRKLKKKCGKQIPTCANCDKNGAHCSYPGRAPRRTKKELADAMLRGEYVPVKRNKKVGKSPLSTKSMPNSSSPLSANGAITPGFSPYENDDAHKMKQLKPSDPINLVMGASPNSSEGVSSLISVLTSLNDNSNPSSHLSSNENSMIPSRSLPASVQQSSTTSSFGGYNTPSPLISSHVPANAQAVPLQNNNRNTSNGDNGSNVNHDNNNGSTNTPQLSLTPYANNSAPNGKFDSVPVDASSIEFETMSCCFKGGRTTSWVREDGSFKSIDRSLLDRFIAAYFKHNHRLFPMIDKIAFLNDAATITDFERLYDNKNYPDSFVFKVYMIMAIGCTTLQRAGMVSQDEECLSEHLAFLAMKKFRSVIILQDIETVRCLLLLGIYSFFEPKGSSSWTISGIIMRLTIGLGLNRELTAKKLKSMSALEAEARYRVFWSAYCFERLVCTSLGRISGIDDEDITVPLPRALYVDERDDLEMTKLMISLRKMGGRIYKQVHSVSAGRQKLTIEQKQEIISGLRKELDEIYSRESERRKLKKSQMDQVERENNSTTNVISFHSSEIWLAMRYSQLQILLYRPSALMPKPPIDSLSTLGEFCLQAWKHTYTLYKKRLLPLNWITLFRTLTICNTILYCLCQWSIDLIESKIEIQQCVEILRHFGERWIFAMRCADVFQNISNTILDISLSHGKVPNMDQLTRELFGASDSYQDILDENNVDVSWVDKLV
- Experiment summary: PBM E-score (8-mer binding enrichment) (E-score (-0.5 to 0.5)); higher = stronger / more preferred TF binding
- Recorded conditions: protein concentration: 200 nM; construct: GST-full length
In all, about 33,000 sequences were measured (“E-score (-0.5 to 0.5)”: median about -0.054, highest 2% from about 0.35 on). Many of the other results were omitted from the sample, so the highest values are more common in it than they were.
If the reported PBM E-score equals or exceeds -0.1, assign Satisfied. If not, assign Not satisfied.

Solved entries:
Residue string	Target or system	Category label
CCTGCTGA	Stb5 (UniProt P38699)	Not satisfied
AACCCTGG	Stb5 (UniProt P38699)	Not satisfied
CAGTTCCG	Stb5 (UniProt P38699)	Satisfied

Item "AACTAGCA" with PBM E-score of -0.1 or above?
Not satisfied

Try the sequence "ATACCGAG"
Satisfied

Try the sequence "CGCAGCAG"
Satisfied

---

- Target or system: Stb5 (UniProt P38699)
- Sequence: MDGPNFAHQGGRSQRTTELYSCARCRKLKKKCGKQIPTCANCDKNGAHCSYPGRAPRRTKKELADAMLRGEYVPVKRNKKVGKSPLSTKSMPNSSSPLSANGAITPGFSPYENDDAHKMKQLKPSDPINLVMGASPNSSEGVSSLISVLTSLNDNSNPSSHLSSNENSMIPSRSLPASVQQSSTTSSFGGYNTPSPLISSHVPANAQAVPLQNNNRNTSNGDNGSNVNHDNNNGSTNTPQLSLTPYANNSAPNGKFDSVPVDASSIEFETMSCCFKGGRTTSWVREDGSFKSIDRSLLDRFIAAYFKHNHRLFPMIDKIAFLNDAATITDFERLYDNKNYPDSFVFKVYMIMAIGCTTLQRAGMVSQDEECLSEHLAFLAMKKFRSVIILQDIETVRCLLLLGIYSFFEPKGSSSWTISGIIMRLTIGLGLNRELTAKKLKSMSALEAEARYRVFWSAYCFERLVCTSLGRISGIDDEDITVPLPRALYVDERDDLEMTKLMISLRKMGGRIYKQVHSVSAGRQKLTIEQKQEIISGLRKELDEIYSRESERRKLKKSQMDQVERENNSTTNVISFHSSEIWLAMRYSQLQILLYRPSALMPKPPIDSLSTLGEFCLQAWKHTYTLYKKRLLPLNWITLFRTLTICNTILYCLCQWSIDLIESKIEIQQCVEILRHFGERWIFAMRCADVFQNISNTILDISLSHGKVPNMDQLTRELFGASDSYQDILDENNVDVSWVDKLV
- Experiment summary: PBM E-score (8-mer binding enrichment) (E-score (-0.5 to 0.5)); higher = stronger / more preferred TF binding
- Recorded conditions: protein concentration: 200 nM; construct: GST-full length
Over roughly 33,000 sequences, “E-score (-0.5 to 0.5)” has its median near -0.054; the highest 2% begin near 0.35. The sample as a whole holds a higher share of the highest values than the screen did.
If the reported PBM E-score equals or exceeds 0.2, assign condition met. If not, assign condition not met.

Solved entries:
Residue string	Category label
CGACCTAA	condition not met
CGAAGAGA	condition not met
AGCGGCCT	condition met
TCTGTGCA	condition not met
GATGATAA	condition not met
TATTTACA	condition not met
CGGCATCC	condition met
CGTCGGAA	condition met

Item "AGGCATCA" with PBM E-score of 0.2 or above?
condition not met

Try the sequence "CGGCATCA"
condition met

Try the sequence "AGCGGCCG"
condition met

Try the sequence "CCCAGTAA"
condition not met

---

- Target or system: Stb5 (UniProt P38699)
- Sequence: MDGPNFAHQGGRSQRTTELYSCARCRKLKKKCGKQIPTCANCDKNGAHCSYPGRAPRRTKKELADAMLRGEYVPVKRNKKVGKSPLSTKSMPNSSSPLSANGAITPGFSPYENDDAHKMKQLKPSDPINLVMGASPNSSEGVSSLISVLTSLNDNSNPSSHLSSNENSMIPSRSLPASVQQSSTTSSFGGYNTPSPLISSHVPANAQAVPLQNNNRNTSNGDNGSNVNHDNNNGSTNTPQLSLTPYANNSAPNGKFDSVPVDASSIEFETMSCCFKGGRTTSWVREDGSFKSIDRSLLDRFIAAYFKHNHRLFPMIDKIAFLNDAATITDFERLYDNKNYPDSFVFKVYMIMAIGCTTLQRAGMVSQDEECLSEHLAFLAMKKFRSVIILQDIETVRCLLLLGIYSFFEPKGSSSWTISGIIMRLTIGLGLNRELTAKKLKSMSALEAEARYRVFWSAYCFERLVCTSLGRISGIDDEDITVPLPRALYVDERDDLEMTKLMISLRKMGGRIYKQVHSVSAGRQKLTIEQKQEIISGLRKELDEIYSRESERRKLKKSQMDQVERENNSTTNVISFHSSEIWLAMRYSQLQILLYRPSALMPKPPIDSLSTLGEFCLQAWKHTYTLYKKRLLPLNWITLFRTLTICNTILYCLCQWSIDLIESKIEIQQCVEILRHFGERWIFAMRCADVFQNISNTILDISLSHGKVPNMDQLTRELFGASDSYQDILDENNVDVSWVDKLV
- Experiment summary: PBM E-score (8-mer binding enrichment) (E-score (-0.5 to 0.5)); higher = stronger / more preferred TF binding
- Recorded conditions: protein concentration: 200 nM; construct: GST-full length
Over roughly 33,000 sequences, “E-score (-0.5 to 0.5)” has its median near -0.054; the highest 2% begin near 0.35. Shown is part of a subset that was picked to be rich in the highest values.
Attribute measured: PBM E-score

Look over these answered cases.
Residue string	PBM E-score
AATGAGAG	-0.228
AAGTCTGC	-0.211
GCGTCATA	-0.0207
GAGTCTGA	-0.308
AGCGGAAT	0.228

Fill in the blank: the reported PBM E-score of "CACCGCCG" is ____.
0.405

Try the sequence "AGCGGACT"
0.39

Try the sequence "CACCGCCA"
0.408

Try the sequence "ACGCCTAT"
-0.198

Try the sequence "CCCGCACG"
0.325

---

Parameter: PBM E-score. Scope: all listed entries.
- Target or system: Stb5 (UniProt P38699)
- Sequence: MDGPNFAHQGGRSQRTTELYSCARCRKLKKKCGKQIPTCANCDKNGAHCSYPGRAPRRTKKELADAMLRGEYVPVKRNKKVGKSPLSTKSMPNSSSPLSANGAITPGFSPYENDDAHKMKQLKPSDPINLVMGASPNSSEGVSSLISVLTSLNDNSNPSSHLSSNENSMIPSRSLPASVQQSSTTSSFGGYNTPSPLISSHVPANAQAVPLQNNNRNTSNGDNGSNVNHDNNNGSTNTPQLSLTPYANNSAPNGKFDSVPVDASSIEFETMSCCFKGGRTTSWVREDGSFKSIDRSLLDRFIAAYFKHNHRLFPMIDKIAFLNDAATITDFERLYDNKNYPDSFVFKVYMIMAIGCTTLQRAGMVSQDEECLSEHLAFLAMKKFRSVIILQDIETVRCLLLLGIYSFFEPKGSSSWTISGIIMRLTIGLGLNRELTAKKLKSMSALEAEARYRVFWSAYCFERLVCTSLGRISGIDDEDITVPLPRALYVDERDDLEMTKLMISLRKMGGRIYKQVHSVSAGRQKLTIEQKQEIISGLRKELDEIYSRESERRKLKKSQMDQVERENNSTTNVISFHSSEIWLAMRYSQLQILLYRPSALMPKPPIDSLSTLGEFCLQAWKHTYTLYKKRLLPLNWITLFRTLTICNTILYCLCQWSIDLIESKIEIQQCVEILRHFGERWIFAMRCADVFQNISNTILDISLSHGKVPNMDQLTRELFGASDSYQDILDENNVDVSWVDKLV
- Experiment summary: PBM E-score (8-mer binding enrichment) (E-score (-0.5 to 0.5)); higher = stronger / more preferred TF binding
- Recorded conditions: protein concentration: 200 nM; construct: GST-full length
In all, about 33,000 sequences were measured (“E-score (-0.5 to 0.5)”: median about -0.054, highest 2% from about 0.35 on). The entries come from a sample that favours the highest values as a whole.
API note: the answer field is a bare number with no unit suffix.

Look over these answered cases.
Residue string	PBM E-score
AAACTCTA	-0.134
GCAACTTA	-0.0671
CACCGAAA	0.305
ACCGGTGA	0.319
AGCGGTCA	0.29
CACCGAGA	0.151
ATGTGGGC	0.089
CTCTTAAA	-0.0109

Lab note: next sequence to report on.
What measured PBM E-score is associated with "AACGGCAG" on Stb5 (UniProt P38699)?
0.107
